Biological target: human GPR139 receptor (Homo sapiens, UniProt Q6DWJ6)
Construct: expressed in transfected cells; host or cells: T-REx-CHO (Thermo Fisher Scientific), doxycycline-induced
Sequence (Q6DWJ6 1-353): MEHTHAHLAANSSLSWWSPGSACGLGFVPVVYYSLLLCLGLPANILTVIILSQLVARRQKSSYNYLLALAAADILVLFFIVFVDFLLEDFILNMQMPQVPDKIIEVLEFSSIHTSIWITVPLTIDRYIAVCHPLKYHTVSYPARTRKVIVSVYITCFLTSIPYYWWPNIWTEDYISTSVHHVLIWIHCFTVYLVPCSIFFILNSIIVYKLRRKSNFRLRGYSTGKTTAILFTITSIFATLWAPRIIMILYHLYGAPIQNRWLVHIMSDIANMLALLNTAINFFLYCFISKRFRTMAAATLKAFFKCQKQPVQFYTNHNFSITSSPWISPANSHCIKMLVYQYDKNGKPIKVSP
Test: GPR139 Competition Binding (membrane-based, tritium-labeled ligand)
Conditions: T-REx-CHO membranes with human GPR139; 6.5 nM tritium-labeled ligand; 11-point curve, 30 μM maximum concentration; read-out: GPR139 Binding Affinity (pKi) (converted)
quantityName: Ki (nM)
Give the quantity in nM, number only.

Below, 3 compounds whose answers are already recorded.
>>> df
                                   compound  reportedvalue
0  CC(C)c1nn(C)c2cnn(CC(=O)N[C@@H](C)c3ccc(C(F)(F)F)cc3)c(=O)c12 [Example 52]            204
1  Cc1ccc([C@H](C)NC(=O)Cn2ncc3c(C4CC4)nn(C)c3c2=O)cc1F [Example 151]           60.3
2  Cc1ccc([C@H](C)NC(=O)Cn2nc(C)c3c(C)nn(C4CC4)c3c2=O)cc1 [Example 22]           9.12

q: Can you look up the measured Ki of C[C@H](NC(=O)Cn1ncc2c(C3CC3)nn(C)c2c1=O)c1ccc(C(F)(F)F)cc1 [Example 142] for me?
a: 229

q: Would you mind doing Cc1nn(C(C)C)c2c(C)nn(CC(=O)N[C@@H](C)c3ccc(C(F)(F)F)cc3)c(=O)c12 [Example 56] as well?
a: 479

q: Would you mind doing Cc1ccc([C@H](C)NC(=O)Cn2nc(C)c3c(C)nn(C)c3c2=O)cc1 [Example 20] as well?
a: 178

q: Would you mind doing Cc1nn(CC(=O)N[C@@H](C)c2ccc(C(F)(F)F)cc2)c(=O)c2c1cnn2C [Example 40] as well?
a: 251

q: Would you mind doing Cc1nn(C2CC2)c2cnn(CC(=O)N[C@@H](C)c3ccc(Cl)cc3F)c(=O)c12 [Example 24] as well?
a: 97.7

----------
Target: human GPR139 receptor (Homo sapiens, UniProt Q6DWJ6)
Construct: expressed in transfected cells; host or cells: T-REx-CHO (Thermo Fisher Scientific), doxycycline-induced
Assay: Measurement of GPR139 Activation Via Calcium Signaling (FLIPR, T-REx-CHO cells)
Format: cell-based
Conditions: T-REx-CHO cells stably expressing human GPR139, 11-point dose response, 10 μM maximum concentration, read-out: GPR139 Potency (pEC50) (converted)
Property: log10 of EC50; scope: individual compounds
Use the decimal logarithm of EC50 (nM).

Below, 5 compounds whose answers are already recorded.
>>> print(df.to_string())
                                   compound  reportedvalue
0  Cc1nn(CC(=O)N[C@@H](C)c2ccc(OC(F)(F)F)cc2)c(=O)c2cnn(C3CC3)c12 [Example 79]           2.41
1  [2H]C([2H])([2H])c1ccc([C@H](C)NC(=O)Cn2ncc3c(c(C)nn3C3CC3)c2=O)cc1 [Example 167]           1.80
2  C[C@H](NC(=O)Cn1ncc2c(C3CC3)nn(C)c2c1=O)c1c(F)cccc1Cl [Example 150]           1.68
3  Cc1ccc([C@H](C)NC(=O)Cn2ncc3c(C)nn(C)c3c2=O)cc1 [Example 27]           2.38
4  Cc1nn(C)c2cnn(CC(=O)N[C@@H](C)c3ccc(C(F)(F)F)cc3)c(=O)c12 [Example 37]           1.42

q: Request body: readout log10 of EC50, system human GPR139 receptor (Homo sapiens, UniProt Q6DWJ6), query Cc1nn(C2CC2)c2cnn(CC(=O)N[C@@H](C)c3ccc(F)cc3Cl)c(=O)c12 [Example 131] . Return the value.
a: 1.62

q: Would you mind doing Cc1ccc([C@H](C)NC(=O)Cn2nc(C)c3c(C)nn(C4CC4)c3c2=O)c(F)c1 [Example 69] as well?
a: 1.84

q: Would you mind doing Cc1nn(CC(=O)N[C@@H](C)c2ccc(OC(F)(F)F)cc2)c(=O)c2c1cnn2C(C)(C)C [Example 15] as well?
a: 2.79

----------
Target: human GPR139 receptor (Homo sapiens, UniProt Q6DWJ6)
Construct: expressed in transfected cells; host or cells: T-REx-CHO (Thermo Fisher Scientific), doxycycline-induced
Sequence (Q6DWJ6 1-353): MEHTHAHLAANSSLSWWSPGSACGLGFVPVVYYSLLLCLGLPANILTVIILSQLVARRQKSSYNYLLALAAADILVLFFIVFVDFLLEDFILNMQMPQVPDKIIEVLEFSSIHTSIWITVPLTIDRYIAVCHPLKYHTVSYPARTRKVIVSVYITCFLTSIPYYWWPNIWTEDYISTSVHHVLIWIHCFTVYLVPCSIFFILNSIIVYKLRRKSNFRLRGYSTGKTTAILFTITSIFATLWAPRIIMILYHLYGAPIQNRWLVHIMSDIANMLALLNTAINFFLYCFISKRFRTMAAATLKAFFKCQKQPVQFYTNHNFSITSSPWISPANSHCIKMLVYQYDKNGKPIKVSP
Assay: Measurement of GPR139 Activation Via Calcium Signaling (FLIPR, T-REx-CHO cells)
Format: cell-based
Conditions: T-REx-CHO cells stably expressing human GPR139, 11-point dose response, 10 μM maximum concentration, read-out: GPR139 Potency (pEC50) (converted)
Label Satisfied when EC50 is strictly below 0.09 µM; at or above that, label Not satisfied.

q: Input Cc1ccc([C@H](C)NC(=O)Cn2nc(C)c3c(cnn3C)c2=O)cc1 ; condition: EC50 strictly below 0.09 µM. Does it hold?
a: Not satisfied

q: Would you mind doing Cc1nn(CC(=O)N[C@@H](C)c2ccc(C(F)(F)F)cn2)c(=O)c2ncn(C)c12 as well?
a: Not satisfied

q: Would you mind doing CC(C)c1nn(CC(=O)N[C@@H](C)c2ccc(C(F)(F)F)cc2)c(=O)c2c1cnn2-c1ccccc1 as well?
a: Not satisfied

q: Would you mind doing Cn1nc(C2CC2)c2c(=O)n(CC(=O)N3CCCC3c3ccc(Cl)cc3)ncc21 (stereo not drawn) as well?
a: Not satisfied

----------
Property: EC50; scope: individual molecules
Biological target: human GPR139 receptor (Homo sapiens)
Construct: expressed in transfected cells; host or cells: T-REx-CHO (Thermo Fisher Scientific), doxycycline-induced
Test: Measurement of GPR139 Activation Via Calcium Signaling (FLIPR, T-REx-CHO cells)
Type: cell-based
Settings: T-REx-CHO cells stably expressing human GPR139, 11-point dose response, 10 μM maximum concentration, read-out: GPR139 Potency (pEC50) (converted)
Give the quantity in nM, number only.

>>> print(df.to_string())
                                   molecule  quantityname  reportedvalue
0  Cc1nn(CC(=O)N[C@@H](C)c2ccc(C(F)(F)F)cc2)c(=O)c2cnn(C)c12          EC50             55
1  Cc1nn(C2CC2)c2cnn(CC(=O)N[C@@H](C)c3ccc(OC(F)(F)F)cc3)c(=O)c12          EC50            282
2  Cc1nn(CC(=O)N[C@@H](C)c2ccc(OC(F)(F)F)cc2)c(=O)c2c(C3CC3)nn(C)c12          EC50           69.2
3  Cc1nn(C2CC2)c2cnn(CC(=O)N[C@@H](C)c3c(F)cccc3Cl)c(=O)c12          EC50           91.2
4  Cc1ccc([C@H](C)NC(=O)Cn2ncc3c(c(C4CC4)nn3C(C)C)c2=O)c(F)c1          EC50            117
5  Cc1nn(C2CC2)c2cnn(CC(=O)N[C@@H](C)c3ccc(C(F)(F)F)cn3)c(=O)c12          EC50            617
6  C[C@H](NC(=O)Cn1ncc2c(C3CC3)nn(C)c2c1=O)c1ccc(OC(F)(F)F)cc1          EC50            117
7  Cc1nn(CC(=O)N[C@@H](C)c2cccc(F)c2)c(=O)c2c1c(C)nn2C          EC50           21.4

q: Can you look up the measured EC50 of CC(C)c1nn(C)c2cnn(CC(=O)N[C@@H](C)c3ccc(OC(F)(F)F)cc3)c(=O)c12 for me?
a: 166

q: Would you mind doing Cc1nn(C)c2c(C)nn(CC(=O)N[C@@H](C)c3ccc(OC(F)(F)F)cc3)c(=O)c12 as well?
a: 617

q: Would you mind doing Cc1ccc([C@H](C)NC(=O)Cn2nc(C)c3c(ncn3C)c2=O)cc1 as well?
a: 513
